Target: ZFP SBS#903 (synthetic)
Sequence (chain, as listed by the source): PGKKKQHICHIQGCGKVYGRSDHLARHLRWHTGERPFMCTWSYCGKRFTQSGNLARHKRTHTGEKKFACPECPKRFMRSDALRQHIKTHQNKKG
Experiment: EMSA
Details: tags: MBP fusion
endpoint-name: pKd
In textbook form, pKd equals minus log to base ten of the concentration in mol/L.

Inquiry: Which value of pKd has been reported for ATGGAAGGG (dsDNA) DNA 1: ATGGAAGGG DNA 2: CCCTTCCAT in the records?
Reply text: 8.99
